Each entry below carries its recorded log10(Kd).
EXPERIMENTAL_TARGET: T1, EsCas13d, nuclease-dead (Eubacterium siraeum, UniProt B0MS50, R295A;H300A;R849A;H854A)
T1 sequence: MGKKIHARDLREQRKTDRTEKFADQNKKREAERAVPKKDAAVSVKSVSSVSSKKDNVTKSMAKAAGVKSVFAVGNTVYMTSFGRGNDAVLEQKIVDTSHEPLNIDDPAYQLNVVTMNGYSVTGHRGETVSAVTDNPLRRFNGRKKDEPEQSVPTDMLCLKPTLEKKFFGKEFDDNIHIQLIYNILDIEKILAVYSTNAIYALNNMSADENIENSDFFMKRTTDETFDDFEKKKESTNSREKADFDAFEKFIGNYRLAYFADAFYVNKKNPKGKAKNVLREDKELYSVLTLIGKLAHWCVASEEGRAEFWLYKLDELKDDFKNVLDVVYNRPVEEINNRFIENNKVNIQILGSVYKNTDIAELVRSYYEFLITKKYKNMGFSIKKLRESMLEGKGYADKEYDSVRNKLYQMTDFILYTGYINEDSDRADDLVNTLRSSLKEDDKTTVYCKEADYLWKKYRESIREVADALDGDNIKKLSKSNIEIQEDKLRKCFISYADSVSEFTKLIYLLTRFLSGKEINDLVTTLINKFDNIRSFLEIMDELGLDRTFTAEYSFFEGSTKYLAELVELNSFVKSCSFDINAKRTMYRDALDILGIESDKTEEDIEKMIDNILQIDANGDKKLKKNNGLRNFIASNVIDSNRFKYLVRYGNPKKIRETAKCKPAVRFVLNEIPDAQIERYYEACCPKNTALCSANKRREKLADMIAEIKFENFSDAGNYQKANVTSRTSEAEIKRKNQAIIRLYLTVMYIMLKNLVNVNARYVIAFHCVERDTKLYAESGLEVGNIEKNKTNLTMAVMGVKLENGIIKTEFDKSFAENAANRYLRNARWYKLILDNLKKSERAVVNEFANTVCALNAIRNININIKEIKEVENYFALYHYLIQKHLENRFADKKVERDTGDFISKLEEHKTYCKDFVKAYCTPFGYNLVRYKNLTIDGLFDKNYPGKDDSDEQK
EXPERIMENT_NOTES: crRNA (strand 1, pre-loaded); Mg2+; 40 mM Tris-HCl pH 7.5, 150 mM NaCl, 6 mM MgCl2, 1 mM DTT, 0.1% Tween-20, 0.2 mg/ml BSA; 25 C; 10 min per concentration, then washed
PROTOCOL_CONDITIONS: tags: His6-TwinStrep-SUMO cleaved; N-terminal SNAP kept (SNAP-Surface 488); label: 3' end held by stalled T7 RNA polymerase
RESULT_TYPE: log10(Kd) (log10 of the value in nM)

BINDER	log10(Kd)
target 2 MT 5'PFS CAU 3'PFS AGC (mixed) RNA 1: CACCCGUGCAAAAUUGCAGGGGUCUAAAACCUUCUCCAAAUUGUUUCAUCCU RNA 2: GGGAAUGGAUCCACAUCUACGAAUUCCAUAGGAUGAAACAAUUUGGAGAAGAGCAGAUCGGAAGAGCACACGU	0.48
target 3 insA 3' of 4,insU 3' of 4 (mixed) RNA 1: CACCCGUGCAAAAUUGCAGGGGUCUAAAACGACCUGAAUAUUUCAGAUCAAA RNA 2: GGGAAUGGAUCCACAUCUACGAAUUCGUUUUUGAUCUGAAAUAUUCAGAUGUCUGCAGAUCGGAAGAGCACACGU	1.64
target 2 MT 5'PFS GAA 3'PFS CUU (mixed) RNA 1: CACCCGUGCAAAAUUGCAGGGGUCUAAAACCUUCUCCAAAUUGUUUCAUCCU RNA 2: GGGAAUGGAUCCACAUCUACGAAUUCGAAAGGAUGAAACAAUUUGGAGAAGCUUAGAUCGGAAGAGCACACGU	1.18
target 2 MT 5'PFS AAG 3'PFS UCC (mixed) RNA 1: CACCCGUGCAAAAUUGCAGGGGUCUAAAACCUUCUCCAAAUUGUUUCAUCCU RNA 2: GGGAAUGGAUCCACAUCUACGAAUUCAAGAGGAUGAAACAAUUUGGAGAAGUCCAGAUCGGAAGAGCACACGU	1.21
target 1 insG 3' of 2,insU 3' of 1 (mixed) RNA 1: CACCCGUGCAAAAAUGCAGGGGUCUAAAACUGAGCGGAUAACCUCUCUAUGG RNA 2: GGGAAUGGAUCCACAUCUACGAAUUCGUACCAUAGAGAGGUUAUCCGCUCGAUCCGAGAUCGGAAGAGCACACGU	1.00
target 2 MT 5'PFS CUU 3'PFS UGC (mixed) RNA 1: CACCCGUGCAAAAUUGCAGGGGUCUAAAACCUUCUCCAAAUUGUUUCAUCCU RNA 2: GGGAAUGGAUCCACAUCUACGAAUUCCUUAGGAUGAAACAAUUUGGAGAAGUGCAGAUCGGAAGAGCACACGU	0.65
target 1 MT 5'PFS GCG 3'PFS AUC (mixed) RNA 1: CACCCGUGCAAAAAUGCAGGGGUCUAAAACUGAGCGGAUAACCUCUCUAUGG RNA 2: GGGAAUGGAUCCACAUCUACGAAUUCGCGCCAUAGAGAGGUUAUCCGCUCAAUCAGAUCGGAAGAGCACACGU	1.34
target 2 MT 5'PFS ACC 3'PFS AUG (mixed) RNA 1: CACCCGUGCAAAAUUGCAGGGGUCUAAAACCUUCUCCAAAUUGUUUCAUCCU RNA 2: GGGAAUGGAUCCACAUCUACGAAUUCACCAGGAUGAAACAAUUUGGAGAAGAUGAGAUCGGAAGAGCACACGU	0.76
